Data provenance is ChEMBL document CHEMBL1157539.

Consider the following molecules; for each one, report its Inhibition.
- Tested on: Plasmodium falciparum
- experimental protocol: GSK_TCMDC: Inhibition of Plasmodium falciparum 3D7 in whole red blood cells, using parasite LDH activity as an index of growth. Test compounds present at 2uM
- Format: functional
// units = %; emit number, no label

stdin: // returns reported Inhibition for input CCOC(=O)CN(c1ccc(Br)cc1OCCOc1cc(Br)ccc1N(CC(=O)OCC)C(C)C(=O)OCC)C(C)C(=O)OCC (stereo not given)
stdout: 94

stdin: Same again, this time with `COC(=O)c1c(NC(=O)c2cccc(C(F)(F)F)c2)sc2c1CCN(Cc1ccccc1)C2.Cl`
stdout: 84

stdin: Now consider Cc1n[nH]c(C)c1C1CCN(CC2CCC(NC(=O)/C=C/c3ccc(Cl)c(Cl)c3)CC2)CC1 (stereo not given) and answer again.
stdout: 100

stdin: Now consider CCN1CCCC(Nc2ccnc3cc4ccccc4cc23)C1 (stereo not given) .
stdout: 100

stdin: Query `CN1CCN(CCCCCCNc2c3ccccc3nc3ccccc23)CC1.Cl` next
stdout: 100

====

- System: HepG2
- experimental protocol: GSK_TCMDC: Percent inhibition of human HepG2 cell line. Test compounds present at 10uM.
- Format: functional
measure: Inhibition (%)
Please give a number only; it is taken to be in %.

stdin: // lookup Inhibition for `CCN1CCN(CCCNc2ccnc3cc(Cl)ccc23)CC1.Cl`
stdout: 7

stdin: What do you get for `COc1ccc(OC)c(-c2cccc(-c3cccc(NC(=O)c4ccc([N+](=O)[O-])o4)c3)n2)c1` ?
stdout: 75

stdin: Repeat with Cc1noc(C)c1C(=O)N1CCCC(c2[nH]c3c(C)cccc3c2-c2ccncc2)C1.Cl (centres undefined)
stdout: 16

stdin: And the next one, `CC(C)C[C@H]1c2[nH]c3ccc(Cl)cc3c2CCN1C(=O)CCc1ccccc1` ?
stdout: 0

stdin: Ok, now `O=C(NCCc1ccccc1)N(Cc1ccccc1-c1cccc(CNCc2ccc3c(c2)OCO3)c1)C1CCN(Cc2ccccc2)CC1.O=C(O)C(F)(F)F`
stdout: 29

stdin: Ok, now `CN(C)CCNc1cc(-c2ccc3ccccc3c2)nc2ccccc12`
stdout: 24

stdin: Subsequent entry: `O=C(Nc1ccc(-c2ccc(-c3nc4ccccc4[nH]3)s2)cc1)Nc1ccc(Cl)c(Cl)c1`
stdout: 89

stdin: Next compound up: `Cl.Oc1ccc(CCCc2cc(Oc3c(I)cc(CCc4ncc[nH]4)cc3I)ccc2O)cc1`
stdout: 26

stdin: Same question for `FC(F)(F)c1ccc(CSc2ccc3nnc(-c4ccccn4)n3n2)cc1` please.
stdout: 0

====

- Test system: Plasmodium falciparum
- experimental protocol: GSK_TCMDC: Inhibition of Plasmodium falciparum 3D7 in whole red blood cells, using parasite LDH activity as an index of growth. Test compounds present at 2uM
- Format: functional
measure: Inhibition (%)
All answers are understood in %, so give the number only.

stdin: Could you tell me which Inhibition is on file for CCN(CC)CCCC(C)Nc1ccnc2[nH]c3ccccc3c12 (centres undefined) ?
stdout: 82

stdin: Now consider `Cl.O=C(Nc1cccc(-c2nn3ncccc3c2-c2ccnc(Nc3cccnc3)n2)c1)c1c(F)cccc1F` .
stdout: 96

stdin: Entry CCOc1cc(C(=O)NCCCN2CCCCC2C)ccc1-c1nc2cc(Cl)ccc2[nH]1 (centres undefined) please
stdout: 89

stdin: Then what about the compound `C=CCNc1cc(-c2ccccn2)nc(-c2ccccn2)n1` ?
stdout: 94

stdin: Next entry: O=C(Nc1ccc(Cl)cc1)OCCn1nnnc1C(c1ccc(Cl)cc1)N1CCOCC1 (centres undefined)
stdout: 90

stdin: // query: Cl.O=C(C=Cc1cccc(F)c1)NC1CCC(CCN2CCc3ccc(-c4cnccn4)cc3CC2)CC1 (centres undefined)
stdout: 100

stdin: Next record, please: `CS(=O)(=O)c1ccc(CCNCc2ccc(-c3ccc(CNC4Cc5ccccc5C4)cc3)nc2)cc1.O=C(O)C(F)(F)F`
stdout: 100

stdin: Similarly, `Cc1cc(C(F)(F)F)cc(-n2ncc(-c3ccc(C(=O)NCc4ccccc4N)cc3)c2N)n1.O=C(O)C(F)(F)F` ?
stdout: 99

stdin: What about this compound? N#Cc1ccc(-c2ccc(C(=O)NC3CCN(CCN4CCC(c5cn(CCOC6CCCCO6)c6ccccc56)CC4)CC3)cc2)cc1 (centres undefined)
stdout: 99
